Taken from patent US20240247080A1.

Biological target: T1, human neuropeptide Y2 (NPY2) receptor (human, UniProt P49146 1-381)
T1 sequence (looked up): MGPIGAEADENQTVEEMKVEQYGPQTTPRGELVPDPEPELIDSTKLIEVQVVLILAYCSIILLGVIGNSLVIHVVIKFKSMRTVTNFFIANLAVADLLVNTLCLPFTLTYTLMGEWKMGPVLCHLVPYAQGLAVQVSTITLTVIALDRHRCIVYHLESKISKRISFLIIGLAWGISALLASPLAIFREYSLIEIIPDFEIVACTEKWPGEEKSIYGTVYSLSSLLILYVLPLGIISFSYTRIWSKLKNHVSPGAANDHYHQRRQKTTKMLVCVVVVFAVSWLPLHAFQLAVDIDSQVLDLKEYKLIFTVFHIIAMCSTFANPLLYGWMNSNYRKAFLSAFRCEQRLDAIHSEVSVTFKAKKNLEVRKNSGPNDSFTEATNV
Assay: cell-based or functional assay
Starred links: 1 amine or outer side, 2 acyl side, 3 side chain; linkers in the order of their positions; H or OH if unused. Non-standard residues stand in square brackets, D forms with d. Groups on a side chain read outwards from the residue. No end group written: not given here. *: point of attachment. C20 diacid = O=C(O)CCCCCCCCCCCCCCCCCCC(=O)*; C18 diacid = O=C(O)CCCCCCCCCCCCCCCCC(=O)*; γGlu = O=C(O)[C@H](CCC(=O)[*:2])N[*:1]; εLys = N[C@@H](CCCCN[*:1])C(=O)[*:2]; AEEA = NCCOCCOCC(=O)O; Aib = CC(C)(N)C(=O)O
Dear colleague, classification is by EC50, CreLuc assay, 100% hP, with ranges listed here: low end (below 30 nM), middle (30 nM to below 60 nM), high end (60 nM or more)

Would you please look over these solved cases?
>>> group("YXEGTFTSDYSIXLEKQAQXAFVEWLIKGGPSSGASLRHYLNWLTRQRY (Aib at 2, 13, 20; K28 side chain: C20DA-gGlu-gGlu-gGlu-gGlu-gGlu-gGlu-eLys; C-terminal NH2) [Compound 86]")
"middle"
>>> group("YXEGTFTSDYSIXLEKQAQXAFVEWLIKGGPSEPQSIRHYYNWLTRQRY (Aib at 2, 13, 20; K28 side chain: C20DA-gGlu-gGlu-gGlu-gGlu-gGlu-gGlu-eLys; C-terminal NH2) [Compound 48]")
"middle"
>>> group("Y[Aib]EGTFTSDYSI[Aib]LEKQAQ[Aib]AFVQWLIK([εLys-Glu-γGlu-γGlu-γGlu-γGlu-C20 diacid])GGPEYYASLRHYYNWLTRQRY-NH2 (also: TFA salt) [Compound 23]")
"high end"
>>> group("Y[Aib]EGTFTSDYSI[Aib]LEKQAQ[Aib]EFVQWLIK([εLys-γGlu-γGlu-γGlu-γGlu-γGlu-γGlu-γGlu-C20 diacid])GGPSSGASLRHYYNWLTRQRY-NH2 (also: TFA salt) [Compound 43]")
"low end"
>>> group("Y[Aib]EGTFTSDYSI[Aib]LEKQAQ[Aib]AFVQWLIKGGQRYYASLRHYYNWLTRQRY-NH2 (not fully specified (residue 28); also: TFA salt) [Compound 6]")
"high end"

// query Where would YXEGTFTSDYSIXLEEQAQXAFVQWLIKGGPSSGASLRHYYNWLTRQRY (Aib at 2, 13, 20; K28 side chain: C20DA-gGlu-gGlu-Glu-gGlu-gGlu-gGlu-eLys; C-terminal NH2) [Compound 30] land among the classes by reported EC50, CreLuc assay, 100% hP?
// result middle

// query Where would Y[Aib]EGTFTSDYSI[Aib]LEKQAQ[Aib]AFVQWLIK([AEEA-AEEA-γGlu-γGlu-γGlu-γGlu-C18 diacid])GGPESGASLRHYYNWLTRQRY-NH2 (also: TFA salt) [Compound 58] land among the classes by reported EC50, CreLuc assay, 100% hP?
// result low end

// query Where would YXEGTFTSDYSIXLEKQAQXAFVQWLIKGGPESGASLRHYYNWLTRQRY (Aib at 2, 13, 20; K28 side chain: C18DA-gGlu-gGlu-gGlu-gGlu-gGlu; C-terminal NH2) [Compound 53] land among the classes by reported EC50, CreLuc assay, 100% hP?
// result middle

// query Where would YXEGTFTSDYSIXLEKQAQXAFVEWLIKGGPSSGASLRHYYNRXTRQRY (Aib at 2, 13, 20, 44; K28 side chain: C20DA-gGlu-gGlu-gGlu-gGlu-gGlu-gGlu-eLys; C-terminal NH2) [Compound 68] land among the classes by reported EC50, CreLuc assay, 100% hP?
// result high end

// query Where would YXEGTFTSDYSIXLEKQAQXAFVEWLIKGGPSEYVSIRHYYNWLTRQRY (Aib at 2, 13, 20; K28 side chain: C20DA-gGlu-gGlu-gGlu-gGlu-gGlu-gGlu-eLys; C-terminal NH2) [Compound 42] land among the classes by reported EC50, CreLuc assay, 100% hP?
// result low end

// query Where would YXEGTFTSDYSIXLEKQAQXAFVEWLIKGGPSSYVSIRHYYNWLTRQRY (Aib at 2, 13, 20; K28 side chain: C20DA-gGlu-gGlu-gGlu-gGlu-gGlu-gGlu-eLys; C-terminal NH2) [Compound 9] land among the classes by reported EC50, CreLuc assay, 100% hP?
// result low end

// query Where would YXEGTFTSDYSIXLEAAKQXAFVEWLIKGGPSSGASLRHYYNWLTRQRY (Aib at 2, 13, 20; K28 side chain: C20DA-gGlu-gGlu-gGlu-gGlu-gGlu-gGlu-eLys; C-terminal NH2) [Compound 25] land among the classes by reported EC50, CreLuc assay, 100% hP?
// result middle

// query Where would Y[Aib]EGTFTSDYSI[Aib]LEKQAQ[Aib]AFVQWLIK([εLys-Glu-Glu-Glu-Glu-Glu-C18 diacid])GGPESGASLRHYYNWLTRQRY-NH2 (also: TFA salt) [Compound 63] land among the classes by reported EC50, CreLuc assay, 100% hP?
// result high end
